experiment: Colistin pharmacokinetics in epithelial lining fluid (ELF) after nebulized CMS in ventilated VARI patients; format: in vivo, human; details: human, epithelial lining fluid (ELF), inhaled or intranasal, 2 mIU, ELF; 6 h post-nebulization; VMN, n = 18; 2 mIU CMS inhaled; median (IQR); read-out: Ccolistin,ELF
Where a SMILES comes first, the peptide text is derived from it. Bridges are numbered along the chain shown (N, C = ends). [ ]: non-standard residue; d: D form. The star is where a group is joined. X1 = CC[C@H](C)CCCCC(=O)*; Dab = NCC[C@H](N)C(=O)O
Measure name: level at 6 h (ng/mL)
Numbers only, in ng/mL.

The measured level at 6 h associated with CC[C@H](C)CCCCC(=O)N[C@@H](CCN)C(=O)N[C@H](C(=O)N[C@@H](CCN)C(=O)N[C@H]1CCNC(=O)[C@H]([C@@H](C)O)NC(=O)[C@H](CCN)NC(=O)[C@H](CCN)NC(=O)[C@H](CC(C)C)NC(=O)[C@@H](CC(C)C)NC(=O)[C@H](CCN)NC1=O)[C@@H](C)O [colistin] (X1-[Dab]T[Dab][Dab][Dab][dL]L[Dab][Dab]T; lactam 4-C) reads 8600

Reference source for all entries: paper PMC9686516
